Experiment: yeast display, Sf9 membrane polyspecificity reagent, FACS + sequencing; frameworks hold sequencing errors
PROPERTY: polyreactivity (PSR sort gate)

QVQLVESGGGLVQAGGSLRLSCAASGYNFYVNGMGWYRQAAGTERELVARITLSGTSTYYADSVKGRITISRDYAKNTVYLQMNSLKPDDTAVYYCAAPYFTYGLDVDVYWGQGTQVTVSS | low polyreactivity
QVQLVESGGGLVQAGGSLRLSCAASGRIFTTYAMGWYRQAPGKERELVARIRWRGGSTYYADSVKGRFTISRDNAKNTVYLKMNSLKPEDTAVYYCNADKYYGFDYWGQGTQVTVSS | high polyreactivity
QVQLVESGGGLVQAGGSLRLTCAASGNTFYQYAMGWYRQATGKERELVAAISSSGGSTYYADSVKGRFTISRDNAKNTVYLQMNSLKPEDTAVYYCATDKWYGYYYWGQGTQVTVSS | low polyreactivity
QVHLVESGGGLVQAGGSLRLSCAASGSIFINNTMGWYRQAPGKERELVAAISITGGSTYYADSVKGRFTISRDNAKNTVYLQMNSLKPEDTAVYYCAADPLQLYDYNYWGQGTQVTVSS | low polyreactivity

Now for the sequence whose polyreactivity (PSR sort gate) we want.
Noted for QVQIVESGGGLVQAGGSLRLSCAASGSIFGTYAMGRYRQAPGKERELVAAINSGDSTYYADSVKGRFTISRDNAKNTVYLQMNSLKPEDTAVYYCGARETYWSGYFIYYYWGQGTQVNVSS : its polyreactivity (PSR sort gate) reads high polyreactivity

====

Assay: yeast display, Sf9 membrane polyspecificity reagent, FACS + sequencing; frameworks hold sequencing errors
PROPERTY: polyreactivity (PSR sort gate)

Some solved entries appear below for comparison.
QVQLVESGGGLVQAGGSLRLSCAASGRIFKSYAMGWYRQAPGKERELVAAIRSGGSTYYADSVKGRFTISRDNAKYTVYLQMNSLKPEDTAVYYCNRVTRTWKVTYHYWGQGTQVTVSS | high polyreactivity
QVQLVESGGGLVQAGGSLRLSCAASGLIIAHYAMGWYRQAPVKERELVAAITSGSSTYYADSVKGRFTISRDNAKNNVYLQMNSLKPEDTAVYYCAAKETHSAYRSSGNYWGQGTQVTVSS | low polyreactivity
QVQLVESGGGLVQAGGRLRISCAASGRTFQVYTIGWYRQAPGKERELVAAITWNGGRSRYADSVKGRFTISRDNAKNTVYLQMNRLKPEDTAVYYCNAGSTELGWTWELDYWGQGTQVTVSS | high polyreactivity
QVQLVESGGGLVQAGGSLRLSCAASGRTFDSNAMGWYRQAPGKERELVAAISYSGGSTYYADSVKGRFTISRDNAKNTVYLQMNSLKPEDTAVYYCNAGDVHKKPARDYWGQGTQVTVSS | low polyreactivity

Noted for QVQLVESGGGLVQAGGSHRLSCAASGRTLGGYAMGWSRQAPGKERELVAAISYSGGSTYYADSVKGRFTISRDNAKNTVYLQMNSLKAEFTAVYYCARDYSWYYYGSQLFAHDYWGQGTQVTVSS : its polyreactivity (PSR sort gate) reads low polyreactivity

====

Assay: yeast display, Sf9 membrane polyspecificity reagent, FACS + sequencing; frameworks hold sequencing errors
PROPERTY: polyreactivity (PSR sort gate)

QVQLVESGGGLVQAGGSLRLSCAASGYTFQAYAMGWYRQAPGKERELVAAISFSSGSTYYADSVKGRFTISRDNAKNTVYLQMNSLKPVDTAVYYCATDYPYYGYDYWGHGTQVTVSS | low polyreactivity
QVQLVESGGGLVQAGGSLRLSCAASGFTFRSNAMGWSRQAPGKERELVAAISYSGGDTYYADSVKGRFTISRDNAKNTVYLQMNSLKPEDTAVYYCAADDPASPLGEYWGQGTQVSVSS | low polyreactivity
QVQLVESGGGLVQAGGSLRLSCAASGLIFISYAMGWYRQAPGKERELVAAITSTVGGTYYADSVKGRFTISRDNAKNTVYLQMNSLKPEDTAVYYCAAEISYRWWYNLGFTSFVYWGQGTLVTVSS | low polyreactivity
QVQLVESGGGLVQAGGSLRLSCAASGSTFLSYAMGWYRQAPGKERELVAAITGSGGSTYYADSVKGRFTISRDNAKNTVYLQMNSLKPEDTAVYYCATDLWRWYGWFDYWGQGTQVTVSS | low polyreactivity
QVQLVESGGGLVQAGGSLRLSCAASGFTFGENAMGWYRQAPGKEWELVATISDSGDSTYYADSVKGRFTISRDNAKNTVYLLMNSLKPEDTAVYDCNAEQVCYTYGRYPEWYLYGYWGQGTQVTVSS | low polyreactivity

Noted for QVQLVESGGGLVQAGGSLRLSCAASGRTFISYAMGWYRQAPGKESELVAAISSSGGSTYYADSVKGRFTISRDNAKNTVYLQMNSLKPEDTEVYYCNAAKVRRDPAWRLLDYWGQGTQVTVSS : its polyreactivity (PSR sort gate) reads low polyreactivity

Noted for QVQLVESGGGLVQAGCSLRLSCAASGRIIDGYAMGWYRQAPGKEREFVAAITWIGGRTYYADSVKGRFTISRDNAKITVYLHMNSLKPEDTAVYYCAVVQSRYRGRFDYWGQGTQVTVTS : its polyreactivity (PSR sort gate) reads high polyreactivity

Noted for QVQLVESGGGLVQAGGSLRLSCAASGFIFYTYAMGWYRQAPGKERELVAAISRGGRTNYADSVKGRFTISRDNAKNSVYLQMNSLKPEDTAVYYCASSYSHRYDYWGQGTQVTVSS : its polyreactivity (PSR sort gate) reads high polyreactivity

====

Assay: yeast display, Sf9 membrane polyspecificity reagent, FACS + sequencing; frameworks hold sequencing errors
PROPERTY: polyreactivity (PSR sort gate)

Some solved entries appear below for comparison.
QVQLVESGGGLVQAGGSLRISCAASGSTFSRNVMGWYRQAPGKERELVAAISRGGSTNYADSVKGRFTISRDNAKKTVYLQMNSLKTEVTAVYYCNAPRLGKFYYWGQGTQVTVSS | low polyreactivity
QVQLVESGGGLVQAGGSLRLSCAASGFTFSSDAMGWYRQAPGKERELVAAITWRGGTTYYADSVKGRFTISRDNAKNTVYLQMNSLKPEDTAVYYCAVDFKRVIRGSRWGDYWGQGTQVTVSS | high polyreactivity
QDQLVESGGGLVQAGGSLRLSCAASGFTFYQYAMGLYIQAPGKERELVASITWNGGSTFYADSVKGRFTISRDNAKNTVYFQMNSLKPEDTAVYYCNVAYVYGSFRRRPMGYWGQGTQVTVSS | high polyreactivity
QVQLVESGGGLVQAGGSLRLSCAASGFIFDTYALGWYRQAPGKERELVAVMSSSGGRTYYADSVKGRFTISRDNAKNTVYLQMNSLKPEDNAVYYCAARWYSGYGRFDYWGQGTQVTVSS | high polyreactivity
QVHLVESGGGLVQAGGSLRLSCAASGSIFSWYAMGWYRQAPGKEWELVAAITWSGGSTYYADSVKGRFTISRDTAKNTVYLQMNSLKPEDTAVYYCAASYDIYGNYRRYDYWGQGTQVTVSS | high polyreactivity
QVQLVESGGGLVQARGSLRLSCAPSGFTFEAYAMGWYRQAPGKERELVAAISSSDTTSYADSVKGRFTISRDNAKNTVYLQMNSLKREDTAVYYCAADDWYTGYDYWGQGTQVTVSS | high polyreactivity

Noted for QVQLVESGGGLDQAGGSLRLSCAASGFIFAYYAMGWYRQAPGKERELVAAISSGGRTYYADSVKGRFTISRDNAKNTVYLQLNSLKPEDTAVYYCNKRFYPEHYYWGQGTQVTVSS : its polyreactivity (PSR sort gate) reads high polyreactivity

Noted for QVQLVESGGGLVQAGGSLRLSCAASGRTFADNAMGWYRQAPGKERELVASISSGTSTNYADSVKGRFTISRDNAKNTVYLQMNSLKPEDTAVYYCNAYGPIWYTAVLGVGRYYGWTDYWGQGTQVTVSS : its polyreactivity (PSR sort gate) reads low polyreactivity

====

Assay: yeast display, Sf9 membrane polyspecificity reagent, FACS + sequencing; frameworks hold sequencing errors
PROPERTY: polyreactivity (PSR sort gate)

Some solved entries appear below for comparison.
QVQLVESGGGLVQAGGSLRLSCAASGLIFAIYAMGWYRKAPGKERELVAAISSGGGRTYYADSVKGRFTISRDNAKNTVYLQMNSLKPEDTAVYYCNARYRTVRSGGEYWVLMDYWGQGTQVTVSS | high polyreactivity
QVQLVESGGGLLQAGVSLRLSCAASGFIFSYNTMGWYRQPPGKEREFVAAITYSGGSTYYADSVKWRFTSSRHNAKNSVYLQMNTLKPEDTAVYYCAAPYPRGYFFGDSPKGYGGGYWGQGTQVTVSS | high polyreactivity
QVQLVESGGGLVQAGGSLRLSCAASGSTFAIYPMGWYRPAPGKERELVAAITRSGGNTYYADSVKGRFTISRDNAKNTVYLQMNSLKPEDTAVYYCNAETYYWSAYAQYEYWGQGTQVTVSS | high polyreactivity
LVQHVESGGGIVQAGGSLRLICAASGFPYNYYAMGWYRQAPGTEREFVAAISSGGGSTYYAYSVKGRFTISRDNAKNTVYLQMNSLKPEDTSGYYCAADRYSHYGYWGQATQVTVSS | low polyreactivity

Now for the sequence whose polyreactivity (PSR sort gate) we want.
Noted for QVQRVESGGGLVQAGGSLRLSCAASGRTSYYNTMGWYRQAPGKEMELVAAITGRGDSTYYADSVKGRFTISRDNAKNTVYLQMNSLKPEDTAVYYCADDELHLLYRVSKFVDYNHWGQGTQVTVSS : its polyreactivity (PSR sort gate) reads low polyreactivity
